Values from patent US20260077071A1

Biological target: human full-length CCK-2 receptor (Homo sapiens)
Construct: stably transfected to over-express the human full-length CCK-2 receptor (A431-CCK-2R); expressed in transfected cells
Sequence (P32239 whole entry): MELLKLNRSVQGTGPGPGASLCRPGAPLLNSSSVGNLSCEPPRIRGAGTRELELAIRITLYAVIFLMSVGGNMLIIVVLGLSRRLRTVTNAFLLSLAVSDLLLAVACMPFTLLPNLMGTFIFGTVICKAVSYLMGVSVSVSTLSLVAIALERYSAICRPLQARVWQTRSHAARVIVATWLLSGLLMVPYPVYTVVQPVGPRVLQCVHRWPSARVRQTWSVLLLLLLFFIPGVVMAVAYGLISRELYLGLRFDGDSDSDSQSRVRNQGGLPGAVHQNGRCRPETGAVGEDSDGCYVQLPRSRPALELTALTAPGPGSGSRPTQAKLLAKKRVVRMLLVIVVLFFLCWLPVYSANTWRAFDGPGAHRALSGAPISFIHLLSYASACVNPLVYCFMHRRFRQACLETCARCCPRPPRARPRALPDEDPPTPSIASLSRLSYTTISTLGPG
Assay: Competitive ligand binding against [^177Lu]Lu-DOTA-CP04 in A431-CCK-2R cells
Conditions: D-Ala substituted peptides (Table 2); against [^177Lu]Lu-DOTA-CP04 in A431-CCK-2R cells; read-out: IC50
Experimental: CCK-2 receptor binding experiments were conducted using A431 (human epidermoid carcinoma) cells stably transfected to over-express the human full-length CCK-2 receptor (A431-CCK-2R). As a negative control, A431 cells stably transfected with an empty vector were analysed simultaneously (A431-EV). […] The affinity of peptides for the CCK-2R was evaluated using competitive binding assays against [^177Lu]Lu-DOTA-CP04 in A431-CCK-2R cells. […]
Square brackets hold non-standard residues; d marks the D form. Peptide text beside a SMILES is read from it. 1Nal = N[C@@H](Cc1cccc2ccccc12)C(=O)O; NMeNle = CCCC[C@H](NC)C(=O)O; Sar = CNCC(=O)O
OBSERVED_PROPERTY: IC50 (nM)
Only the number, expressed in nM, is required.

>>> recorded_value("CCCC[C@@H](C(=O)N[C@@H](CC(=O)O)C(=O)N[C@@H](Cc1cccc2ccccc12)C(N)=O)N(C)C(=O)[C@H](Cc1c[nH]c2ccccc12)NC(=O)CN(C)C(=O)[C@H](Cc1ccc(O)cc1)NC(=O)[C@H](C)NC(=O)[C@@H](CCC(=O)O)NC(=O)[C@@H](CCC(=O)O)NC(=O)[C@@H](C)NC(=O)[C@@H](CCC(=O)O)NC(=O)[C@@H](CCC(=O)O)NC(=O)[C@H](N)CCC(=O)O [D] (H-[dE][dE][dE][dA][dE][dE]AY[Sar]W[NMeNle]D[1Nal]-NH2)")
1.62

Prompt: Return IC50 (reported value) for this compound: CCCC[C@@H](C(=O)N[C@@H](CC(=O)O)C(=O)N[C@@H](Cc1cccc2ccccc12)C(N)=O)N(C)C(=O)[C@H](Cc1c[nH]c2ccccc12)NC(=O)CN(C)C(=O)[C@H](Cc1ccc(O)cc1)NC(=O)[C@H](C)NC(=O)[C@@H](CCC(=O)O)NC(=O)[C@@H](CCC(=O)O)NC(=O)[C@@H](CCC(=O)O)NC(=O)[C@@H](CCC(=O)O)NC(=O)[C@@H](C)NC(=O)[C@H](N)CCC(=O)O [B] (H-[dE][dA][dE][dE][dE][dE]AY[Sar]W[NMeNle]D[1Nal]-NH2)
Completion: 1.23

Prompt: # return recorded IC50 for entry CCCC[C@@H](C(=O)N[C@@H](CC(=O)O)C(=O)N[C@@H](Cc1cccc2ccccc12)C(N)=O)N(C)C(=O)[C@H](Cc1c[nH]c2ccccc12)NC(=O)CN(C)C(=O)[C@H](Cc1ccc(O)cc1)NC(=O)[C@H](C)NC(=O)[C@@H](CCC(=O)O)NC(=O)[C@@H](CCC(=O)O)NC(=O)[C@@H](CCC(=O)O)NC(=O)[C@@H](CCC(=O)O)NC(=O)[C@@H](CCC(=O)O)NC(=O)[C@H](N)CCC(=O)O [Cmp ex-1, reference compound] (H-[dE][dE][dE][dE][dE][dE]AY[Sar]W[NMeNle]D[1Nal]-NH2; N-terminus assumed)
Completion: 0.319

Prompt: Report IC50, nothing else, for this compound: CCCC[C@@H](C(=O)N[C@@H](CC(=O)O)C(=O)N[C@@H](Cc1cccc2ccccc12)C(N)=O)N(C)C(=O)[C@H](Cc1c[nH]c2ccccc12)NC(=O)CN(C)C(=O)[C@H](Cc1ccc(O)cc1)NC(=O)[C@H](C)NC(=O)[C@@H](C)NC(=O)[C@@H](CCC(=O)O)NC(=O)[C@@H](CCC(=O)O)NC(=O)[C@@H](CCC(=O)O)NC(=O)[C@@H](CCC(=O)O)NC(=O)[C@H](N)CCC(=O)O [F] (H-[dE][dE][dE][dE][dE][dA]AY[Sar]W[NMeNle]D[1Nal]-NH2)
Completion: 1.62

Prompt: For the compound CCCC[C@@H](C(=O)N[C@@H](CC(=O)O)C(=O)N[C@@H](Cc1cccc2ccccc12)C(N)=O)N(C)C(=O)[C@H](Cc1c[nH]c2ccccc12)NC(=O)CN(C)C(=O)[C@H](Cc1ccc(O)cc1)NC(=O)[C@H](C)NC(=O)[C@@H](CCC(=O)O)NC(=O)[C@@H](CCC(=O)O)NC(=O)[C@@H](CCC(=O)O)NC(=O)[C@@H](C)NC(=O)[C@@H](CCC(=O)O)NC(=O)[C@H](N)CCC(=O)O [Peptide C] (H-[dE][dE][dA][dE][dE][dE]AY[Sar]W[NMeNle]D[1Nal]-NH2) , give its reported IC50.
Completion: 0.18
